Examples of sequences with documented total protein half-life in vivo follow.
# assay: total protein half-life in vivo (active degradation + dilution); higher = more stable protein
# assay_setup: wild type E. coli NCM3722; growth: P-lim chemostat; doubling time 6 h

{"seq_text": "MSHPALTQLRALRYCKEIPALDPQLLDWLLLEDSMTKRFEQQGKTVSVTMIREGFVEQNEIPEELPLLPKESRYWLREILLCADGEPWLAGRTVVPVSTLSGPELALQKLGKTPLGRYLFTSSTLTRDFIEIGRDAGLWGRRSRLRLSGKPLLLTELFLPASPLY", "total protein half-life in vivo": "4.77 h"}
{"seq_text": "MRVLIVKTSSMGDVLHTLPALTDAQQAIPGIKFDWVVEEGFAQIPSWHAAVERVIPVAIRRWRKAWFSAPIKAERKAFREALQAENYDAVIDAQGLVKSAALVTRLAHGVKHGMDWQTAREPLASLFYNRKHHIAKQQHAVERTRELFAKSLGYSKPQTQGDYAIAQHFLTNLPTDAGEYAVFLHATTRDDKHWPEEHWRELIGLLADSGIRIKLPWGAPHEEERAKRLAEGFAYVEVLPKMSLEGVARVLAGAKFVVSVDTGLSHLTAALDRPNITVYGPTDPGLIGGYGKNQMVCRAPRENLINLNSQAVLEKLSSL", "total protein half-life in vivo": "5.23 h"}
{"seq_text": "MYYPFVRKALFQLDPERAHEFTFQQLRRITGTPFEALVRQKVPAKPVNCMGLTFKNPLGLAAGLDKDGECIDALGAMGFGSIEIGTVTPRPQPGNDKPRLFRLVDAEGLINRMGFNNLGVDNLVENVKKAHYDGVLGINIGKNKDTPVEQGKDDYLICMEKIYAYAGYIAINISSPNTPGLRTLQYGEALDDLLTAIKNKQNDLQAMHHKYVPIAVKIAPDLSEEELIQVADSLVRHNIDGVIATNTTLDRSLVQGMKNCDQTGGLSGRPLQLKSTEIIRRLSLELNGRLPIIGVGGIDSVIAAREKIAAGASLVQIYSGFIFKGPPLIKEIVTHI [P0A7E1]", "total protein half-life in vivo": "6.03 h"}
{"seq_text": "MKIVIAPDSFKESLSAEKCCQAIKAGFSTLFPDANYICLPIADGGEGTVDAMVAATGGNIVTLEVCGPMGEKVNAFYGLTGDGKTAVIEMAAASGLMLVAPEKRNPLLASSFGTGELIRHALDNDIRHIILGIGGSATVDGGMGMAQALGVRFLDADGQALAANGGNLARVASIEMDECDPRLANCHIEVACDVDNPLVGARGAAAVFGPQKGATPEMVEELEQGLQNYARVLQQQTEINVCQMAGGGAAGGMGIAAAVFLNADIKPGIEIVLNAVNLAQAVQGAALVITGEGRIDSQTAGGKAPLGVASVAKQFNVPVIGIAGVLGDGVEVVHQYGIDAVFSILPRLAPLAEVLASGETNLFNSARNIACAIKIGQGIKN", "total protein half-life in vivo": "5.05 h"}
{"seq_text": "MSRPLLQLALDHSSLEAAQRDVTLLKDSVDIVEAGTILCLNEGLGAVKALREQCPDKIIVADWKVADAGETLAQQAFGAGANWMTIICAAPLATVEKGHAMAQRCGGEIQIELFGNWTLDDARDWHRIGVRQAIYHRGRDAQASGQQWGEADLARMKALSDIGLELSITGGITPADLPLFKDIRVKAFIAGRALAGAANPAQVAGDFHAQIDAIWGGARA", "total protein half-life in vivo": "5.76 h"}
{"seq_text": "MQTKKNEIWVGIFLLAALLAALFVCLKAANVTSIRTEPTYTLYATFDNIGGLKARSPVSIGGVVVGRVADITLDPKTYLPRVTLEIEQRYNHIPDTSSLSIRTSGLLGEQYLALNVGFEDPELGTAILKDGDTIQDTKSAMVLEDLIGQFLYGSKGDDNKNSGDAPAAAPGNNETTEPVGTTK", "total protein half-life in vivo": "5.72 h"}
{"seq_text": "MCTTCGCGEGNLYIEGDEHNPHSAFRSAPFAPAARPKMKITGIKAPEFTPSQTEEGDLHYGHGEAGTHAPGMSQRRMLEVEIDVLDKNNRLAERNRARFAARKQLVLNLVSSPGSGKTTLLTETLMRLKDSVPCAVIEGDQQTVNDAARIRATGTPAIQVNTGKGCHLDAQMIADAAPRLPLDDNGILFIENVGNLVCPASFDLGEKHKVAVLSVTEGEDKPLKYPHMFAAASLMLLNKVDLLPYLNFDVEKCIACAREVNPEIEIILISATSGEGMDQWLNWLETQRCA [P0AAN3]", "total protein half-life in vivo": "3.69 h"}
